# measured_target: BLM642-1290 C1055N/C1063N (Homo sapiens, UniProt P54132 642-1290, C1055N;C1063N)
# Sequence (P54132 642-1290 C1055N/C1063N): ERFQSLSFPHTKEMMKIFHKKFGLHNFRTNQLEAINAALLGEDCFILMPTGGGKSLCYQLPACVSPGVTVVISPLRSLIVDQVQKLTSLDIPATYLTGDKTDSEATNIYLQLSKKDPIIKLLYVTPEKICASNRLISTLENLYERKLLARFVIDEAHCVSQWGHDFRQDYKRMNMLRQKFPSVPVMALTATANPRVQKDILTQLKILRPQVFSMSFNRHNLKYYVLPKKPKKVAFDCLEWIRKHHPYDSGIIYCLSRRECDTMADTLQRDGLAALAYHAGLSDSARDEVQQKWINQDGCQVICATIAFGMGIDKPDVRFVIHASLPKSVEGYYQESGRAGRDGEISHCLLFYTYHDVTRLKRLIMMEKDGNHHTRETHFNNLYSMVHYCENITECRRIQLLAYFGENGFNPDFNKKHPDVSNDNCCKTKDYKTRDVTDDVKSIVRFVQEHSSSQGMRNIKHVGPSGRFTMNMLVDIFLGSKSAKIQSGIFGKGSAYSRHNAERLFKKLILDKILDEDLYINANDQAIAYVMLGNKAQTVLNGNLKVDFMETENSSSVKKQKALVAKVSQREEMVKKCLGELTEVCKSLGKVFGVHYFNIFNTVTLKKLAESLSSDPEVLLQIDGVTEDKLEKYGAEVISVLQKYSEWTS
# assay_text: fluorescence anisotropy
recorded_endpoint: Kd (nM)
Answer in nM, number only, no unit symbol.

Asked: Reported Kd for A/B partial duplex (23mer duplex with ss tails), fluorescent (dsDNA) DNA 1: GCACTGGCCGTCGTTTTACGGTCGTGACTGGGAAAACCCTGGCG DNA 2: TTTTTTTTTTTTTTTTTTTTTTAGCCGTAAAACGACGGCCAGTGC : what is it?
Given back: 209
